I'd be grateful if you could share measured log10 of IC50 for these entries.
target.under.test: full-length beta-Catenin (Uniprot ID P35222) (Homo sapiens (Human)) (UniProt P35222)
Sequence (P35222 whole entry, the tested form may be a part): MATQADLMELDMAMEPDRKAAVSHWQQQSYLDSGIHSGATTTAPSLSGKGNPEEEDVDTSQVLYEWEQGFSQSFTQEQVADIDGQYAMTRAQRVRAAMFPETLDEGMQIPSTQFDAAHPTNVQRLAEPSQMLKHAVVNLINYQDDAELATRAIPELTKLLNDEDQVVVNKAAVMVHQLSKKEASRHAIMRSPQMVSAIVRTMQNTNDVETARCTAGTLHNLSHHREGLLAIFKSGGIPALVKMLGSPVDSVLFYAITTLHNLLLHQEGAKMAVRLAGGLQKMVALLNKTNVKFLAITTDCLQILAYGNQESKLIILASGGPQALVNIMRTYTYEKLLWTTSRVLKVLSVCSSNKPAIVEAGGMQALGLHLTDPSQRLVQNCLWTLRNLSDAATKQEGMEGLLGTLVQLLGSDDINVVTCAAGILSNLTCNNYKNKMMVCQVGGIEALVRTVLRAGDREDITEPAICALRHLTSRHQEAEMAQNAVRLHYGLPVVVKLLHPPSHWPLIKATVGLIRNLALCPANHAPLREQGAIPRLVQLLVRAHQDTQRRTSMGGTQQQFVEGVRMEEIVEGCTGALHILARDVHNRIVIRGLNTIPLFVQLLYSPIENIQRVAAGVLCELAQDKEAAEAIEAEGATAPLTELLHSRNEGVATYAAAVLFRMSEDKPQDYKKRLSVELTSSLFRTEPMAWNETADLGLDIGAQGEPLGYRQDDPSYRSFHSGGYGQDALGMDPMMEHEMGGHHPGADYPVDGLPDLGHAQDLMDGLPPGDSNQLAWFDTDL
assay.name: fluorescence polarization competition; full-length beta-catenin with 5FAM-labeled TCF4 (residues 10-53) probe as competitor
Starred links: 1 amine or outer side, 2 acyl side, 3 side chain; linkers in the order of their positions; H or OH if unused. Positions of bridges follow the written chain, without caps; N, C: chain ends. Non-standard residues stand in square brackets, D forms with d. Primed or numbered codes have the meaning given here. B5(4) = 2,2-bis(4-pentenyl)glycine = 2-amino-2-(pent-4-en-1-yl)hept-6-enoic acid (stitching residue), C=CCCCC(CCCC=C)(N[*:1])C(=O)[*:2]; TfeGA = (S)-2-amino-3-((carboxymethyl)(2,2,2-trifluoroethyl)amino)propanoic acid, O=C([C@H](CN(CC(=O)[*:3])CC(F)(F)F)N[*:1])[*:2]; B5(3) = 2,2-bis(4-pentenyl)glycine (stitching residue), C=CCCCC(CCCC=C)(N[*:1])C(=O)[*:2]; B5 = 2-amino-2-(pent-4-en-1-yl)hept-6-enoic acid, C=CCCCC(CCCC=C)(N[*:1])C(=O)[*:2]; Phe(3-F) = N[C@@H](Cc1cccc(F)c1)C(=O)O; Phe(3-Me) = Cc1cccc(C[C@H](N)C(=O)O)c1; Ala(cPent) = N[C@@H](CC1CCCC1)C(=O)O; Bta = N[C@@H](Cc1csc2ccccc12)C(=O)O; αAllylPro = C=CC[C@@]1(C(=O)O)CCCN1; 4Pal = N[C@@H](Cc1ccncc1)C(=O)O; S8 = C=CCCCCCC[C@](C)(N)C(=O)O; Nle = CCCC[C@H](N)C(=O)O
Please keep in mind that the values are log10 of IC50 expressed in nM.

Ac-[αAllylPro]DA[B5(4)]D[TfeGA]AA[Phe(3-Me)]Q[S8][Phe(3-F)][Bta]Q-NH2 (staple 1-4, 4-11) [I-404]	3.27
Ac-[αAllylPro]DA[B5]DEAAFV[S8][Ala(cPent)][Bta]Q-NH2 (staple 1-4, 4-11) [I-393]	3.29
Ac-[αAllylPro]DA[B5(4)]DEAAFV[S8][4Pal][Bta]Q-NH2 (staple 1-4, 4-11) [I-385]	3.50
Ac-[αAllylPro]DA[B5]DEAA[Ala(cPent)]V[S8]F[Bta]Q-NH2 (staple 1-4, 4-11) [I-392]	3.70

The measured log10 of IC50 associated with Ac-[αAllylPro]D[Nle][B5(3)]DEAAFA[S8]F[Bta]Q-NH2 (staple 1-4, 4-11) [I-411] reads 2.28
